# test_name: In vitro metabolic stability, rat liver microsomes
# assay_context: % of compound remaining after 30 min incubation at 37° C., 2 μM, 0.5 mg/mL rat liver microsomes
reported_endpoint: Metabolic Stability (%) Rat

INSERT INTO assay_data (molecule, reported_endpoint, endpoint_result) VALUES
  ('CC12C[C@H]3C[C@@H](N4[C@@H]5CCC[C@H]4C[C@@H](n4c(=O)c(N6CCC[C@H]6C(=O)O)nc6ccccc64)C5)C[C@@H]1C[C@@H]2C3 [CC02, reference compound]', 'Metabolic Stability (%) Rat', 97),
  ('CC12C[C@H]3C[C@@H](N4[C@@H]5COC[C@H]4C[C@@H](n4c(=O)c(N6CCC[C@H]6C(=O)O)nc6ccccc64)C5)C[C@@H]1C[C@@H]2C3 [CC04, reference compound]', 'Metabolic Stability (%) Rat', 14),
  ('O=C(O)[C@@H]1CCN1c1nc2ccccc2n([C@H]2C[C@H]3COC[C@@H](C2)N3[C@H]2C[C@@H]3CCC[C@@H](C3)C2)c1=O [C2a(ii)]', 'Metabolic Stability (%) Rat', 86),
  ('O=C(O)[C@@H]1CCCN1c1nc2ccccc2n([C@H]2C[C@H]3COC[C@@H](C2)N3[C@H]2C[C@@H]3CCC[C@@H](CC3)C2)c1=O [CC03, reference compound]', 'Metabolic Stability (%) Rat', 33),
  ('O=C(O)[C@@H]1CCCN1c1nc2ccccc2n([C@H]2C[C@H]3CCC[C@@H](C2)N3[C@H]2C[C@@H]3CCC[C@@H](C3)C2)c1=O [CC01, reference compound]', 'Metabolic Stability (%) Rat', 100),
  ('CC[C@@H]1C[C@@H]2C[C@H](C1)C[C@@H](N1[C@@H]3CCC[C@H]1C[C@@H](n1c(=O)c(N4CC[C@H]4C(=O)O)nc4ccccc41)C3)C2 [B20a(ii)]', 'Metabolic Stability (%) Rat', 84),
  ('CC12C[C@H]3C[C@@H](N4[C@@H]5COC[C@H]4C[C@@H](n4c(=O)c(N6CC[C@H]6C(=O)O)nc6ccccc64)C5)C[C@@H]1C[C@@H]2C3 [C20a(ii)]', 'Metabolic Stability (%) Rat', 62);

---

# test_name: In vitro metabolic stability, human liver microsomes
# assay_context: % of compound remaining after 30 min incubation at 37° C., 2 μM, 0.5 mg/mL human liver microsomes
Here the recorded Metabolic Stability (%) Human is given for each entry.
reported_endpoint: Metabolic Stability (%) Human

INSERT INTO measurements (compound, endpoint_result) VALUES
  ('O=C(O)[C@@H]1CCN1c1nc2ccccc2n([C@H]2C[C@H]3COC[C@@H](C2)N3[C@H]2C[C@@H]3CCC[C@@H](C3)C2)c1=O', 67),
  ('CC12C[C@H]3C[C@@H](N4[C@@H]5CCC[C@H]4C[C@@H](n4c(=O)c(N6CCC[C@H]6C(=O)O)nc6ccccc64)C5)C[C@@H]1C[C@@H]2C3 [CC02, reference compound]', 58),
  ('CC12C[C@H]3C[C@@H](N4[C@@H]5COC[C@H]4C[C@@H](n4c(=O)c(N6CC[C@H]6C(=O)O)nc6ccccc64)C5)C[C@@H]1C[C@@H]2C3 [C20a(ii)]', 6.5),
  ('CC[C@@H]1C[C@@H]2C[C@H](C1)C[C@@H](N1[C@@H]3CCC[C@H]1C[C@@H](n1c(=O)c(N4CC[C@H]4C(=O)O)nc4ccccc41)C3)C2 [B20a(ii)]', 70),
  ('CC12C[C@H]3C[C@@H](N4[C@@H]5COC[C@H]4C[C@@H](n4c(=O)c(N6CCC[C@H]6C(=O)O)nc6ccccc64)C5)C[C@@H]1C[C@@H]2C3 [CC04, reference compound]', 21),
  ('O=C(O)[C@@H]1CCCN1c1nc2ccccc2n([C@H]2C[C@H]3COC[C@@H](C2)N3[C@H]2C[C@@H]3CCC[C@@H](CC3)C2)c1=O [CC03, reference compound]', 60);
